Target: ADAMTS4 (Homo sapiens (Human))
Sequence (O75173 213-685): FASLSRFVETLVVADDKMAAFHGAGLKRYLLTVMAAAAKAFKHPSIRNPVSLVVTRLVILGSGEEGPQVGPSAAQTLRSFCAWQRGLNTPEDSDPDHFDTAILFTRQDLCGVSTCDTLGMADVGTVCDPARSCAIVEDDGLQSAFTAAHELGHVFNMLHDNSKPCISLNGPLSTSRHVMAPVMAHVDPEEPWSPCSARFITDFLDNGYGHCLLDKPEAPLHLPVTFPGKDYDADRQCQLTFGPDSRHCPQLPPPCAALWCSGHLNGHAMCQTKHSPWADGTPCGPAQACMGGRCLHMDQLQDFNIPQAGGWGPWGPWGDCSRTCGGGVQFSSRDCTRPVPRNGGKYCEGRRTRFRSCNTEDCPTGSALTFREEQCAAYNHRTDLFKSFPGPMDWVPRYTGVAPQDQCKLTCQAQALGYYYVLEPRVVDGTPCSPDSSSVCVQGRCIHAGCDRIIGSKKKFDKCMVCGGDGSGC
Assay: Selectivity assay for ADAMTS-7 modulators: ADAMTS4 (FRET substrate)
Format: biochemical
Settings: ADAMTS4 (R&D 4307-AD) 50 nM, substrate Dabcyl-EEVKAKVQPY-Glu(Edans)-NH2 1 μM, 120 min, 32° C.
Cut-off 4 µM on IC50: below means Yes, at or above means No.

                                    molecule                    study_target  class
 0  CC1CCC1C1(CNC(=O)c2ccccc2-c2ccc(C(F)(F)F)cc2)NC(=O)NC1=O (stereo not drawn) [Example 13]  ADAMTS4 (Homo sapiens (Human))     No
 1  O=C1NC(=O)[C@](CNC(=O)c2ccccc2-c2ccc(C3CC3)cc2)(C2CC2)N1  ADAMTS4 (Homo sapiens (Human))     No
 2  Cc1scnc1C1(CNC(=O)c2cc(F)ccc2-c2ccc(C(F)(F)F)cc2)NC(=O)NC1=O (single isomer, unassigned; ent-4) [Example 166]  ADAMTS4 (Homo sapiens (Human))    Yes
 3  Cc1ccc(-c2cc(Cl)ccc2C(=O)NC[C@@]2(C3CC3)NC(=O)NC2=O)cc1  ADAMTS4 (Homo sapiens (Human))    Yes
 4  O=C1NC(=O)[C@](CNC(=O)c2cccnc2-c2ccc(C(F)(F)F)cc2)(C2CC2)N1  ADAMTS4 (Homo sapiens (Human))     No
 5  Cc1c(C2(CNC(=O)c3ccc(F)cc3-c3ccc(C(F)(F)F)cc3)NC(=O)NC2=O)ncn1C (racemic)  ADAMTS4 (Homo sapiens (Human))    Yes
 6  Cc1ccc(-c2c(C)cccc2C(=O)NCC2(c3nccn3C)NC(=O)NC2=O)cc1 (single isomer, unassigned; ent-4)  ADAMTS4 (Homo sapiens (Human))    Yes
 7  O=C1NC(=O)C(CNC(=O)c2ccccc2-c2ccc(C(F)(F)F)cc2)(C2(F)CC2)N1 (stereo not drawn) [Example 255]  ADAMTS4 (Homo sapiens (Human))     No
 8  O=C1NC(=O)[C@](CNC(=O)c2ccccc2-c2ccc(Cl)c(Cl)c2)(C2CC2)N1  ADAMTS4 (Homo sapiens (Human))     No
 9  Cc1nscc1C1(CNC(=O)c2ccccc2-c2ccc(C(F)(F)F)cc2)NC(=O)NC1=O (racemic) [Example 63]  ADAMTS4 (Homo sapiens (Human))     No
10  O=C1NC(=O)C(CNC(=O)c2ccc(F)c(F)c2-c2ccc(C(F)(F)F)cc2)(C2(F)CC2)N1 (single isomer, unassigned; ent-5) [Example 298]  ADAMTS4 (Homo sapiens (Human))     No
11  Cc1ccc(-c2ccccc2C(=O)NCC2(C(C)C)NC(=O)NC2=O)cc1 (racemic) [Example 204]  ADAMTS4 (Homo sapiens (Human))     No
12  Cn1ccnc1C1(CNC(=O)c2cc(F)ccc2-c2ccc(C(F)(F)F)cc2)NC(=O)NC1=O (single isomer, unassigned; ent-4)  ADAMTS4 (Homo sapiens (Human))    Yes
13  Cc1cn(C)nc1C1(CNC(=O)c2ccccc2-c2ccc(C(F)(F)F)nc2)NC(=O)NC1=O (racemic) [Example 35]  ADAMTS4 (Homo sapiens (Human))     No
14  Cn1nccc1C1(CNC(=O)c2cc(F)ccc2-c2ccc(C(F)(F)F)cc2)NC(=O)NC1=O (racemic) [Example 177]  ADAMTS4 (Homo sapiens (Human))     No
15  O=C1NC(=O)C(CNC(=O)c2ccccc2-c2ccc(Cl)cc2)(C2(F)CC2)N1 (racemic) [Example 250]  ADAMTS4 (Homo sapiens (Human))     No
16  Cc1ccc(-c2cnccc2C(=O)NC[C@@]2(C3CC3)NC(=O)NC2=O)cc1  ADAMTS4 (Homo sapiens (Human))     No
